organism: Oryctolagus cuniculus; test: Inhibition of rabbit skeletal muscle sarcoplasmic and endoplasmic reticulum [Ca(2+)]-dependent ATPases(SERCA) activity
In plain terms, low ID50 (nM (mg SR protein)-1), meaning strictly below 40, gives 1, and everything else gives -1.

smiles.code: C/C=C(/C)C(=O)O[C@H]1C(C)=C2[C@H]([C@@H]1OC(=O)CCCCCCC)[C@@](C)(OC(C)=O)C[C@H](OC(=O)CCCCCCCN)[C@@]1(O)[C@H]2OC(=O)[C@@]1(C)O
cat: -1
--
smiles.code: C/C=C(/C)C(=O)O[C@H]1C(C)=C2[C@H]([C@@H]1OC(=O)CCCCCCC)[C@@](C)(OC(C)=O)C[C@H](OC(=O)CCCCCCCCCCCNC(=O)[C@H](C)N)[C@@]1(O)[C@H]2OC(=O)[C@@]1(C)O
cat: 1
--
smiles.code: C/C=C(/C)C(=O)O[C@H]1C(C)=C2[C@H]([C@@H]1OC(=O)CCCCCCC)[C@@](C)(OC(C)=O)C[C@H](OC(=O)CCC)[C@@]1(O)[C@H]2OC(=O)[C@@]1(C)O
cat: 1
--
smiles.code: C/C=C(/C)C(=O)O[C@H]1C(C)=C2[C@H]([C@@H]1OC(=O)CCCCCCC)[C@@](C)(OC(C)=O)C[C@H](OC(=O)CCCCCCCCCCCNC(=O)[C@@H](N)CC(C)C)[C@@]1(O)[C@H]2OC(=O)[C@@]1(C)O
cat: -1
--
smiles.code: C/C=C(/C)C(=O)O[C@H]1C(C)=C2[C@H]([C@@H]1OC(=O)CCCCCCC)[C@@](C)(OC(C)=O)C[C@H](OC(=O)CCCCCNC(=O)[C@@H](N)CC(C)C)[C@@]1(O)[C@H]2OC(=O)[C@@]1(C)O
cat: -1

* * *

species on record: Oryctolagus cuniculus; assay: Inhibition of rabbit skeletal muscle SERCA activity relative to TG
Listing: Activity of selected compounds

smiles.code: C/C=C(/C)C(=O)O[C@H]1C(C)=C2[C@H]([C@@H]1OC(=O)CCCCCCC)[C@@](C)(OC(C)=O)C[C@H](OC(=O)CCCCCCCCCCCNC(=O)[C@@H](N)CO)[C@@]1(O)[C@H]2OC(=O)[C@@]1(C)O
Activity: 0.8

smiles.code: C/C=C(/C)C(=O)O[C@H]1C(C)=C2[C@H]([C@@H]1OC(=O)CCCCCCC)[C@@](C)(OC(C)=O)C[C@H](OC(=O)CCCCCCCCCCN)[C@@]1(O)[C@H]2OC(=O)[C@@]1(C)O
Activity: 3

smiles.code: C/C=C(/C)C(=O)O[C@H]1C(C)=C2[C@H]([C@@H]1OC(=O)CCCCCCC)[C@@](C)(OC(C)=O)C[C@H](OC(=O)CCC)[C@@]1(O)[C@H]2OC(=O)[C@@]1(C)O
Activity: 1

smiles.code: C/C=C(/C)C(=O)O[C@H]1C(C)=C2[C@H]([C@@H]1OC(=O)CCCCCCC)[C@@](C)(OC(C)=O)C[C@H](OC(=O)CCc1ccc(NC(=O)[C@@H](N)CC(C)C)cc1)[C@@]1(O)[C@H]2OC(=O)[C@@]1(C)O
Activity: 35

smiles.code: C/C=C(/C)C(=O)O[C@H]1C(C)=C2[C@H]([C@@H]1OC(=O)CCCCCCC)[C@@](C)(OC(C)=O)C[C@H](OC(=O)CCCCCCCN)[C@@]1(O)[C@H]2OC(=O)[C@@]1(C)O
Activity: 17

smiles.code: C/C=C(/C)C(=O)O[C@H]1C(C)=C2[C@H]([C@@H]1OC(=O)CCCCCCC)[C@@](C)(OC(C)=O)C[C@H](OC(=O)CCCCCN)[C@@]1(O)[C@H]2OC(=O)[C@@]1(C)O
Activity: 99

* * *

Listing: CC50 of selected compounds
experiment: Loss of clonogenic survival of human prostate cancer TSU-Pr1 cells.; format: functional; details: read-out: LC50 (the source's name)

smiles.code: C/C=C(/C)C(=O)O[C@H]1C(C)=C2[C@H]([C@@H]1OC(=O)CCCCCCC)[C@@](C)(OC(C)=O)C[C@H](OC(=O)CCCCCCN)[C@@]1(O)[C@H]2OC(=O)[C@@]1(C)O
CC50: 10900 nM

smiles.code: C/C=C(/C)C(=O)O[C@H]1C(C)=C2[C@H]([C@@H]1OC(=O)CCCCCCC)[C@@](C)(OC(C)=O)C[C@H](OC(=O)CCCCCCCCCCCNC(=O)[C@@H](N)CC(C)C)[C@@]1(O)[C@H]2OC(=O)[C@@]1(C)O
CC50: 30 nM

smiles.code: C/C=C(/C)C(=O)O[C@H]1C(C)=C2[C@H]([C@@H]1OC(=O)CCCCCCC)[C@@](C)(OC(C)=O)C[C@H](OC(=O)CCc1ccc(NC(=O)[C@@H](N)CC(C)C)cc1)[C@@]1(O)[C@H]2OC(=O)[C@@]1(C)O
CC50: 880 nM

smiles.code: C/C=C(/C)C(=O)O[C@H]1C(C)=C2[C@H]([C@@H]1OC(=O)CCCCCCC)[C@@](C)(OC(C)=O)C[C@H](OC(=O)CCCCCCCCCCCNC(=O)[C@@H](N)CO)[C@@]1(O)[C@H]2OC(=O)[C@@]1(C)O
CC50: 890 nM

smiles.code: C/C=C(/C)C(=O)O[C@H]1C(C)=C2[C@H]([C@@H]1OC(=O)CCCCCCC)[C@@](C)(OC(C)=O)C[C@H](OC(=O)CCCCCCCCCCCNC(=O)[C@H](C)N)[C@@]1(O)[C@H]2OC(=O)[C@@]1(C)O
CC50: 280 nM

smiles.code: C/C=C(/C)C(=O)O[C@H]1C(C)=C2[C@H]([C@@H]1OC(=O)CCCCCCC)[C@@](C)(OC(C)=O)C[C@H](OC(=O)CCC)[C@@]1(O)[C@H]2OC(=O)[C@@]1(C)O
CC50: 30 nM

smiles.code: C/C=C(/C)C(=O)O[C@H]1C(C)=C2[C@H]([C@@H]1OC(=O)CCCCCCC)[C@@](C)(OC(C)=O)C[C@H](OC(=O)CCCCCNC(=O)[C@@H](N)CC(C)C)[C@@]1(O)[C@H]2OC(=O)[C@@]1(C)O
CC50: > 20000 nM

smiles.code: C/C=C(/C)C(=O)O[C@H]1C(C)=C2[C@H]([C@@H]1OC(=O)CCCCCCC)[C@@](C)(OC(C)=O)C[C@H](OC(=O)CCCCCN)[C@@]1(O)[C@H]2OC(=O)[C@@]1(C)O
CC50: > 20000 nM

smiles.code: C/C=C(/C)C(=O)O[C@H]1C(C)=C2[C@H]([C@@H]1OC(=O)CCCCCCC)[C@@](C)(OC(C)=O)C[C@H](OC(=O)CCCCCCCN)[C@@]1(O)[C@H]2OC(=O)[C@@]1(C)O
CC50: 3850 nM

smiles.code: C/C=C(/C)C(=O)O[C@H]1C(C)=C2[C@H]([C@@H]1OC(=O)CCCCCCC)[C@@](C)(OC(C)=O)C[C@H](OC(=O)CCCCCCCCCCN)[C@@]1(O)[C@H]2OC(=O)[C@@]1(C)O
CC50: 750 nM

smiles.code: C/C=C(/C)C(=O)O[C@H]1C(C)=C2[C@H]([C@@H]1OC(=O)CCCCCCC)[C@@](C)(OC(C)=O)C[C@H](OC(=O)CCCCCCCCCCCN)[C@@]1(O)[C@H]2OC(=O)[C@@]1(C)O
CC50: 1160 nM

smiles.code: C/C=C(/C)C(=O)O[C@H]1C(C)=C2[C@H]([C@@H]1OC(=O)CCCCCCC)[C@@](C)(OC(C)=O)C[C@H](OC(=O)CCCCCCCCCCCNC(=O)[C@@H](N)Cc1ccccc1)[C@@]1(O)[C@H]2OC(=O)[C@@]1(C)O
CC50: 210 nM

* * *

species: Oryctolagus cuniculus; assay: Inhibition of rabbit skeletal muscle SERCA activity relative to TG

smiles.code: C/C=C(/C)C(=O)O[C@H]1C(C)=C2[C@H]([C@@H]1OC(=O)CCCCCCC)[C@@](C)(OC(C)=O)C[C@H](OC(=O)CCCCCCCCCCCNC(=O)[C@H](C)N)[C@@]1(O)[C@H]2OC(=O)[C@@]1(C)O
Activity: 1.2
//
smiles.code: C/C=C(/C)C(=O)O[C@H]1C(C)=C2[C@H]([C@@H]1OC(=O)CCCCCCC)[C@@](C)(OC(C)=O)C[C@H](OC(=O)CCCCCNC(=O)[C@@H](N)CC(C)C)[C@@]1(O)[C@H]2OC(=O)[C@@]1(C)O
Activity: 287
//
smiles.code: C/C=C(/C)C(=O)O[C@H]1C(C)=C2[C@H]([C@@H]1OC(=O)CCCCCCC)[C@@](C)(OC(C)=O)C[C@H](OC(=O)CCCCCCCCCCCNC(=O)[C@@H](N)CC(C)C)[C@@]1(O)[C@H]2OC(=O)[C@@]1(C)O
Activity: 3.4
//
smiles.code: C/C=C(/C)C(=O)O[C@H]1C(C)=C2[C@H]([C@@H]1OC(=O)CCCCCCC)[C@@](C)(OC(C)=O)C[C@H](OC(=O)CCCCCCCCCCCN)[C@@]1(O)[C@H]2OC(=O)[C@@]1(C)O
Activity: 2.6
//
smiles.code: C/C=C(/C)C(=O)O[C@H]1C(C)=C2[C@H]([C@@H]1OC(=O)CCCCCCC)[C@@](C)(OC(C)=O)C[C@H](OC(=O)CCCCCCN)[C@@]1(O)[C@H]2OC(=O)[C@@]1(C)O
Activity: 90

Hey, just so you know, these numbers are from ChEMBL document CHEMBL1134327.
